From: patent US20110158985A1

Please go through the items and note down their Mean IC50 (Curve).
- STUDY SYSTEM: F protein of RSV (Long strain) (RSV (Long strain), UniProt P12568 26-574)
- Sequence (P12568 26-574): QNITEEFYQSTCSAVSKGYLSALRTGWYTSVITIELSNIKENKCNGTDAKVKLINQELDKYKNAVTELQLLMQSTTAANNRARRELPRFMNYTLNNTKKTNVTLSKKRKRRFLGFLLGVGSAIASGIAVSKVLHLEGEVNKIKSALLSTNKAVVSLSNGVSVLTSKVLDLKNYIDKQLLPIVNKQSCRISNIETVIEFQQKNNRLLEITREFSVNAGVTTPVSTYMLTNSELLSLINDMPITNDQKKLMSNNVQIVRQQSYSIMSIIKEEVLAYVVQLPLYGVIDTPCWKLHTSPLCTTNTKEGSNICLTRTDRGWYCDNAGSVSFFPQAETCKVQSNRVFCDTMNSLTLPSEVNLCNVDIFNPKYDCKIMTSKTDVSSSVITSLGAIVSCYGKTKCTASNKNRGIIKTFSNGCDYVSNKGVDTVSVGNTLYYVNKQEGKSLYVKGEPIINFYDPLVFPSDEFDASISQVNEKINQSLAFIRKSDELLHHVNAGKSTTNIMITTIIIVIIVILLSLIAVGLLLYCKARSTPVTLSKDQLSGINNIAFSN
- ASSAY PROCEDURE: cell-based or functional assay
Answers are plain numbers, in µg/mL.

// worked examples, Mean IC50 (Curve) included
>>> result_value("A4b4 Fab (Fab, V domains shown) VH: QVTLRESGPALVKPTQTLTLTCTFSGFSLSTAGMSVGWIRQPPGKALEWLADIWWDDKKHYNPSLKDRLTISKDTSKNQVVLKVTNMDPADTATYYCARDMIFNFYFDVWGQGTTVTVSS VL: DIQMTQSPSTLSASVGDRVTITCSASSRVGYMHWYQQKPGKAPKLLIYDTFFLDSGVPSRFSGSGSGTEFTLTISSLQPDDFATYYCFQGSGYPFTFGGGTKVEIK")
0.0414
>>> result_value("P12f4 IgG (antibody, V domains shown) VH: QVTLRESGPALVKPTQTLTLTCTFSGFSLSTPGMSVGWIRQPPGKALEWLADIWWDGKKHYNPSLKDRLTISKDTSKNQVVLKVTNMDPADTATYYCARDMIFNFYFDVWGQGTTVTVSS VL: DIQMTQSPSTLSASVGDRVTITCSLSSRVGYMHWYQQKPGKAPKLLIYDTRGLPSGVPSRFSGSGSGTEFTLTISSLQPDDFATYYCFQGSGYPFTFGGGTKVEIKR")
0.0242

Query: Fill blank: measured Mean IC50 (Curve) of the binder A17d4(1) Fab (Fab, V domains shown) VH: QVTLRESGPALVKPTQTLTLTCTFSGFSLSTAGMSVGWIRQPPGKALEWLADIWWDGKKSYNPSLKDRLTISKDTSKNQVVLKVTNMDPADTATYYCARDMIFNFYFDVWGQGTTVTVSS VL: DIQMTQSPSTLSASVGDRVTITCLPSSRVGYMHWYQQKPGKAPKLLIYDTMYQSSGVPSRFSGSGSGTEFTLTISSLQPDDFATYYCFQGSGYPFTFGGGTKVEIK is ____.
Response: 0.0179
